// data source = patent US20260232732A1

# test-target: T1, naked peptide YVNFNFTDFY (human)
# T1 peptide: YVNFNFTDFY
# protocol-details: ELISA naked peptide; scFv 1 ug/mL; repII
The entries below are paired with their reported OD450.
Numbers only here, please. The scale is OD.

Previously resolved entries follow.
binder	unit-info	numeric-value
CCR9_HUM2 scFv (humanized anti-CCR9 scFv, SEQ ID NO: 17 with C-terminal 6xHis tag) (scFv) scFv: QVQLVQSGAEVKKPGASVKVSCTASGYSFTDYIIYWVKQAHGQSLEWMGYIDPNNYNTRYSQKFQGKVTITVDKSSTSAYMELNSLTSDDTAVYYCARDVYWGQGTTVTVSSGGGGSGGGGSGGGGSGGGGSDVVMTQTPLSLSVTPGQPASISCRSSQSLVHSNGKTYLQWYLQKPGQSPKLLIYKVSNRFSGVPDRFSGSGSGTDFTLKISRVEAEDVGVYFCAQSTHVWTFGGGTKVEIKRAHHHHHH	OD	0.02
Comparative antibody 1 (Comp-1) scFv, SEQ ID NO: 10 from WO2023/037125 A1, His-tagged (scFv) scFv: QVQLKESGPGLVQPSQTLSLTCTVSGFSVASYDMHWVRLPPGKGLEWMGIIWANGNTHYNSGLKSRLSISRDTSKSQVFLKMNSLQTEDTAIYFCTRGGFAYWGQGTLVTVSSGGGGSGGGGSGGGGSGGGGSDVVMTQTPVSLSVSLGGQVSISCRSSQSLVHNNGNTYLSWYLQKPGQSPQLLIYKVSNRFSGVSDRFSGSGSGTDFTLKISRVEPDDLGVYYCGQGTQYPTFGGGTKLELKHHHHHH	OD	0.04
Comparative antibody 2 (Comp-2) scFv, 243LO326 (VH SEQ ID NO: 51 and VL SEQ ID NO: 52 of WO 2022/195028 A2), His-tagged (scFv) scFv: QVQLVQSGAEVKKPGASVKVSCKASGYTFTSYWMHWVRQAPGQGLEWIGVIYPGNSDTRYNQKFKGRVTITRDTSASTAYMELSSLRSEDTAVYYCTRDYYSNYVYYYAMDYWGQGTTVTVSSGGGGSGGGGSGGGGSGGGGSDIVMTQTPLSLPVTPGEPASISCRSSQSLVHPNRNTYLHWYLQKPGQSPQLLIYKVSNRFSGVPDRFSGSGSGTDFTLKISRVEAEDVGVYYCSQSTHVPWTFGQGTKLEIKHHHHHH	OD	0.01

Field: next binder
[ask] Given Comparative antibody 3 (Comp-3) scFv, SR_92R (Somovilla-Crespo et al. 2018), His-tagged (scFv) scFv: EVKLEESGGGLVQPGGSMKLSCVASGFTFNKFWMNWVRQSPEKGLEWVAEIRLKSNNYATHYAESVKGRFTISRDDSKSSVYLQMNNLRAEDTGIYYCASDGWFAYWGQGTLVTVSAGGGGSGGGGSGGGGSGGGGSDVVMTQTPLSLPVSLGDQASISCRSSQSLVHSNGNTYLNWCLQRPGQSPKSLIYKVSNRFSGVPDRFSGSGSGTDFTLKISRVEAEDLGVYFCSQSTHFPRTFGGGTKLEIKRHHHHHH , respond with its OD450.
[reply] 0.01
